The measurements presented in this section are drawn from BindingDB's records for doi:10.7270/Q2736PBV.

- target_desc: Streptokinase A (Streptococcus pyogenes serotype M1, UniProt P10520)
- Sequence (P10520 whole entry): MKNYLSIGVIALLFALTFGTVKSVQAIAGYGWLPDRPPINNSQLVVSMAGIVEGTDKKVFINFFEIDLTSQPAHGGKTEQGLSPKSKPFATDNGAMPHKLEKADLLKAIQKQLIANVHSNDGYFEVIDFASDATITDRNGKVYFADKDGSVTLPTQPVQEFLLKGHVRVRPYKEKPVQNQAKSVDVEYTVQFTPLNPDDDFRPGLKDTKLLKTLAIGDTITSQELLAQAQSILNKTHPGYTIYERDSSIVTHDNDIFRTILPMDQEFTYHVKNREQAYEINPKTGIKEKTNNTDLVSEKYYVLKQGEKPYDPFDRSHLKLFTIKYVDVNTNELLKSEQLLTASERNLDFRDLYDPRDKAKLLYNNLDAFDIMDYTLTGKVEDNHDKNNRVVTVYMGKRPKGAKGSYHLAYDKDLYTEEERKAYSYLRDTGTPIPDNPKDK
- assay_protocol: viability-normalized secreted streptokinase activity reduction – plasminogen activation absorbance, OD405, dose response (AID 1914)
measured_attribute: EC50

Observe how each entry below is paired with its result.
CC(=O)c1cccc2c1NC(=C1Nc3ccccc3C1=O)C2=O; 116 µM
CN(C)CCN=CC(C(=O)Nc1ccc(Cl)cc1Cl)C(=O)Nc1ccc(Cl)cc1Cl; > 150 µM
Cc1ccc(NNC2=CS(=O)(=O)N(C)c3ccsc32)cc1; 4.04 µM
Cc1cc(C)n(C(=O)C(C#N)N=Nc2cc(Cl)cc(Cl)c2)n1 (stereo not drawn); > 150 µM
COC1=CC([N+](=O)[O-])=CC(/C=N/NC(=O)C(C)Nc2cccc(C)c2)C1=O (stereo not drawn); > 150 µM
CCOC(=O)c1ccc(NC(=O)Cc2sc(N=NCc3c[nH]c4ccccc34)nc2O)cc1; > 150 µM
Cc1cc(C)c2c(c1)C(=NNc1ccc(C(=O)O)cc1)C(O)=N2; > 150 µM
CCC1C(c2ccccc2)NC(c2ccccc2)C(CC)C1N=O (stereo not drawn); 13.3 µM

State recorded EC50 for all listed compounds.
1. CN(C)S(=O)(=O)c1ccc(-c2csc(N=NCc3ccc(O)cc3)n2)cc1
2. Cc1ccc(NC(=S)N/N=C2\C(=O)Nc3ccccc32)cc1
3. O=C1C(Br)=CC([N+](=O)[O-])=C/C1=C\NNC(=O)C12CC3CCC(CC(C3)C1)C2
4. Cc1ccc(O)c(C2CC(c3ccc(Cl)cc3)N=N2)c1 (stereo not drawn)

1. > 150 µM
2. > 150 µM
3. > 150 µM
4. > 150 µM

State recorded EC50 for all listed compounds.
1. Cc1cc(C)c(N=Nc2c(C)[nH]n(C(N)=S)c2=O)c(C)c1
2. COc1ccc(CC(=O)N/N=C/C2C=C([N+](=O)[O-])C=C(Br)C2=O)cc1 (stereo not drawn)
3. O=NC(c1ccc(Cl)cc1Cl)c1ncc(C(F)(F)F)cc1Cl (stereo not drawn)

["> 150 µM", "> 150 µM", "35.2 µM"]

---

- target_desc: Streptokinase A (Streptococcus pyogenes serotype M1)
- assay_protocol: viability-normalized secreted streptokinase activity reduction – plasminogen activation absorbance, OD405, dose response (AID 1914)
pEC50: −log10 of the molar value.
measured_attribute: pEC50

Observe how each entry below is paired with its result.
CCn1cc(C(=O)O)c(=O)c2cc(F)c(N=NCc3ccccc3[N+](=O)[O-])cc21; < 3.82
COc1cccc(CN=Nc2nc(Nc3ccccc3)nc(-n3nc(C)cc3C)n2)c1O; < 3.82
Cc1ccc(C(=O)CC(=O)C(=O)NC23CC4CC(CC(C4)C2)C3)cc1; < 3.82

State recorded pEC50 for all listed compounds.
1. Cc1ccsc1C1CC(c2cccc(Br)c2)=Nc2ncnn21 (stereo not drawn)
2. CC(N=Nc1ccc(C(=O)O)cc1)c1ccc2c(c1)Nc1ccccc1S2 (stereo not drawn)
3. N#Cc1c(-c2c(Cl)cccc2Cl)noc1CC=Nc1ccc(C(=O)O)cc1
4. O=C(O)c1ccccc1N=NCc1cc(Br)cc(Br)c1O

1: < 3.82; 2: < 3.82; 3: < 3.82; 4: 4.49

What value of pEC50 has been recorded for this entry: `Cc1ccc2nc(-n3c(O)c[nH]c3=S)sc2c1`
< 3.82
